pIC50: −log10 of the molar value.
The following compounds have recorded pIC50 on HPK1 kinase (Homo sapiens).

Exercise: Which pIC50 is listed for Cc1cc(-c2cnc3[nH]cc(-c4ccc(C(=O)N(C)C)cc4)c3n2)cc(C)c1C1=CCN(C2CN(c3cc(F)c(C4CCC(=O)NC4=O)c(F)c3)C2)CC1 (stereo not drawn) ?
Solution: > 8.00

Exercise: // query: COc1ccc(C(=O)N2CC(N3CC=C(c4c(C)cc(-c5cnc6[nH]cc(-c7ccc(C(=O)N(C)C)cc7)c6n5)cc4C)CC3)C2)cc1N1CCC(=O)NC1=O
Solution: > 8.00

Exercise: Next record, please: Cc1cc(-c2cnc3[nH]cc(-c4ccc(C(=O)N(C)C)cc4)c3n2)cc(C)c1C1=CCN(CCCC(=O)c2ccc(C3CCC(=O)NC3=O)cc2)CC1 (stereo not drawn)
Solution: > 8.00

* * *

What AUC was measured for each of the following?
- Measurement protocol: Pharmacokinetic properties in SD rats after gavage
- Assay type: in vivo
- Applied conditions: rat, po, 10 mg/kg, plasma
Value expressed in ng·h/mL; do not type the unit.

Exercise: Field request: AUC | item: Cc1cc(-c2cnc3[nH]cc(-c4ccc(C(=O)N(C)C)cc4)c3n2)cc(C)c1C1=CCN(C2CN(c3ccc(C(=O)NC4CCC(=O)NC4=O)cn3)C2)CC1 (centres unmarked)
Solution: 8990

Exercise: Also O=C1CCN(c2cc(C(=O)N3CCC(CC4CCN(c5ccc(-c6cnc7[nH]cc(-c8cnn(CC(F)(F)F)c8)c7n6)cn5)CC4)CC3)ccc2Cl)C(=O)N1 [Compound a, reference compound] ?
Solution: 3850

Exercise: Note, next up: Cc1cc(N2CC(CN3CC=C(c4c(C)cc(-c5cnc6[nH]cc(-c7ccc(C(=O)N(C)C)cc7)c6n5)cc4C)CC3)C2)ccc1N1CCC(=O)NC1=O
Solution: 11400

Exercise: Similarly, Cc1cc(-c2cnc3[nH]cc(-c4ccc(C(=O)N(C)C)cc4)c3n2)cc(C)c1C1=CCN(CC#Cc2cccc3c(C4CCC(=O)NC4=O)coc23)CC1 (centres unmarked) ?
Solution: 12000

Exercise: What about Cc1cc(-c2c[nH]c3ncc(-c4cc(C)c(C5=CCN(CC6CN(c7ccc(N8CCC(=O)NC8=O)c(F)c7)C6)CC5)c(C)c4)nc23)c(C)s1 ?
Solution: 13100

* * *

- Target of assay: HPK1 kinase (Homo sapiens, UniProt Q92918)
- Sequence (Q92918 whole entry): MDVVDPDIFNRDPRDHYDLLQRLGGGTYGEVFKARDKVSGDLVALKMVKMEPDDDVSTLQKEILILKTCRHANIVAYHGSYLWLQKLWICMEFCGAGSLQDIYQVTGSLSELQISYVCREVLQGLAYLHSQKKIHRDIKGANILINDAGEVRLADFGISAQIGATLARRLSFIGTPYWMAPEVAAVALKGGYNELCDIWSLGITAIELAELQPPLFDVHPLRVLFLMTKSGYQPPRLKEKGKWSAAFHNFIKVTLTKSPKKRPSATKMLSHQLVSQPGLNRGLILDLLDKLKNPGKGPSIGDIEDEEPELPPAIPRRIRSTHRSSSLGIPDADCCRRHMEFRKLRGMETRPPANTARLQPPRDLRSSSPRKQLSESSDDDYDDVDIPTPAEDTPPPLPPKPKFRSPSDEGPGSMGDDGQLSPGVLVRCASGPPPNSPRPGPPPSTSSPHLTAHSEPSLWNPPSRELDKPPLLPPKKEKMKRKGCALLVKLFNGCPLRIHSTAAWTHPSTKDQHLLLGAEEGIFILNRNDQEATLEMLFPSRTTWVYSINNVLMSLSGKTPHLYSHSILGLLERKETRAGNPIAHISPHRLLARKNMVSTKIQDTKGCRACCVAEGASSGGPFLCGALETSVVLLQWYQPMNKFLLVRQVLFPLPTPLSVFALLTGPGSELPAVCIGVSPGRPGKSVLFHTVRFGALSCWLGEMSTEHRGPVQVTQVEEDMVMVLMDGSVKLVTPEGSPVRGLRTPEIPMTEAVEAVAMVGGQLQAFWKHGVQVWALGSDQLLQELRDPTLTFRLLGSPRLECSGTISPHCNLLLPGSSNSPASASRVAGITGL
Value type: IC50

Exercise: # query: IC50 of entry Cc1cc(-c2cnc3[nH]cc(-c4ccc(C(=O)N(C)C)cc4)c3n2)cc(C)c1C1=CCN(C2CC3(CCN(c4ccc(N5CCC(=O)NC5=O)c(F)c4)C3)C2)CC1 (stereo not drawn)
Solution: < 10 nM

Exercise: Continue with Cc1cc(N2CC(CCN3CC=C(c4c(C)cc(-c5cnc6[nH]cc(-c7ccc(C(=O)N(C)C)cc7)c6n5)cc4C)CC3)C2)ccc1N1CCC(=O)NC1=O
Solution: < 10 nM

Exercise: And for Cc1cc(-c2cnc3[nH]cc(-c4ccc(C(=O)N(C)C)cc4)c3n2)cc(C)c1C1=CCN(CC2CN(c3ccc(C(=O)NC4CCC(=O)NC4=O)cc3)C2)CC1 (stereo not drawn) ?
Solution: < 10 nM

* * *

- Measurement protocol: Pharmacokinetic properties in SD rats after gavage
- Assay type: in vivo
- Applied conditions: rat, po, 10 mg/kg, plasma
Output 1 (yes) for AUC not less than 8000 ng·h/mL; output 0 (no) otherwise.

Exercise: Answer whether AUC of Cc1cc(N2CC(CN3CC=C(c4c(C)cc(-c5cnc6[nH]cc(-c7cnn(C8CCN(CC(F)F)CC8)c7)c6c5)cc4C)CC3)C2)ccc1N1CCC(=O)NC1=O [compound 110] is greater than or equal to 8000 ng·h/mL.
Solution: 0 (no)

Exercise: # repeat for Cc1cc(-c2cnc3[nH]cc(-c4ccc(C(=O)N(C)C)cc4)c3n2)cc(C)c1C1=CCN(CC2CN(c3ccc(NC4CCC(=O)NC4=O)cc3F)C2)CC1 (centres unmarked) [compound 052]
Solution: 0 (no)

Exercise: Similarly, Cc1cc(-c2cnc3[nH]cc(-c4ccc(C(=O)N(C)C)cc4)c3n2)cc(C)c1C1=CCN(CC2CN(c3cnn(C4CCC(=O)NC4=O)c(=O)c3)C2)CC1 (centres unmarked) [compound 085] ?
Solution: 1 (yes)

Exercise: And what about the compound Cc1cc(-c2cnc3[nH]cc(-c4ccc(C(=O)N(C)C)cc4)c3n2)cc(C)c1C1=CCN(CC2CN(c3ccc(C(=O)NC4CCC(=O)NC4=O)nc3)C2)CC1 (centres unmarked) [compound 016] ?
Solution: 0 (no)

Exercise: Queued: Cc1cc(-c2cnc3[nH]cc(-c4ccc(C(=O)N(C)C)cc4)c3n2)cc(C)c1C1=CCN(CC2CN(c3ccc(N4CCC(=O)NC4=O)c(F)c3)C2)CC1 [compound 049]
Solution: 1 (yes)

Exercise: Same lookup for Cc1cc(-c2cnc3[nH]cc(-c4ccc(C(=O)N(C)C)cc4)c3c2)cc(C)c1C1=CCN(CC2CN(c3ccc(N4CCC(=O)NC4=O)c(F)c3)C2)CC1 [compound 144] , please.
Solution: 0 (no)

Exercise: Could you do the same for Cc1cc(-c2cnc3[nH]cc(-c4cncc5c4ncn5C)c3n2)cc(C)c1C1=CCN(CC2CN(c3cc(F)c(C4CCC(=O)NC4=O)c(F)c3)C2)CC1 (centres unmarked) [compound 057] , please?
Solution: 1 (yes)

Exercise: Try this compound next: Cc1cc(-c2cnc3[nH]cc(-c4cnn5c4CCC5)c3n2)cc(C)c1C1=CCN(CC2CN(c3ccc(N4CCC(=O)NC4=O)c(F)c3)C2)CC1 [compound 170]
Solution: 1 (yes)

Exercise: Same read-out for Cc1cc(-c2cnc3[nH]cc(-c4ccc(C(=O)N(C)C)cc4)c3n2)cc(C)c1C1=CCN(CC2CN(c3cc4c(cc3F)c(N3CCC(=O)NC3=O)nn4C)C2)CC1 [compound 062] ?
Solution: 1 (yes)

Exercise: Also check Cc1cc(-c2cnc3[nH]cc(-c4ccc(C(=O)N(C)C)cc4)c3n2)cc(C)c1C1=CCN(CC2CN(c3ccc(OC4CCC(=O)NC4=O)cn3)C2)CC1 (centres unmarked) [compound 086]
Solution: 1 (yes)

Exercise: And then COc1cc(-c2cnc3[nH]cc(-c4ccc(C(=O)N(C)C)cc4)c3n2)ccc1C1=CCN(CC2CN(c3ccc(N4CCC(=O)NC4=O)c(C)c3)C2)CC1 [compound 135] , what is it?
Solution: 0 (no)
